- target: 14-3-3σ (Homo sapiens, UniProt P31947)
- Sequence (P31947 whole entry): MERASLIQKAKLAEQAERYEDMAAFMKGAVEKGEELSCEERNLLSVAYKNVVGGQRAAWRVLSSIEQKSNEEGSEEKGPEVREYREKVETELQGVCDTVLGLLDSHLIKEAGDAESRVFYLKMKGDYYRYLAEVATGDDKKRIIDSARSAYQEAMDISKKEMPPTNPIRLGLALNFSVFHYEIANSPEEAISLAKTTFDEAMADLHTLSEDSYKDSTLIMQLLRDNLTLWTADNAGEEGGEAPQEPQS
- protocol.details: Intact mass spectrometry assay, apo (no peptide)
- Format: binding
- Parameters: full-length for mass spectrometry and fluorescence anisotropy assays; made in house; host or cells: E. coli Rosetta 2(DE3)pLysS, pPROEX HTb vector
- measurement.context: 1 μM compound, 100 nM 14-3-3σ, 24 h
readout.label: % bound, APO, 24h (%)
// units = %; emit number, no label

Worked set:
smiles.code: O=C(CCl)NCC1CCN(S(=O)(=O)Cc2ccc(F)cc2)CC1
% bound, APO, 24h / %: 2.9

smiles.code: O=C(CCl)NCC1CCN(S(=O)(=O)c2ccc(F)cc2)CC1
% bound, APO, 24h / %: 6.9

smiles.code: O=C(CCl)NC1CC2(CCN(S(=O)(=O)c3ccc(Br)c(F)c3)CC2)C1
% bound, APO, 24h / %: 7.4

Could you now look at the following compound, please?
For this compound ( N#Cc1ccc(S(=O)(=O)N2CCC(CNC(=O)CCl)CC2)cc1 ), measured % bound, APO, 24h is 2.9
